Entries and their GI50
system: OVCAR-3; assay: NCI tumour cell line growth inhibition, 48 h
Activity calls are given as the source filed them. Cut-off read from the data, not from the text of the source: active = GI50 up to about 1.1 µM and inactive = higher.

# count of solved cases: 3
* CC(=O)NNc1nc(C)c(C(=O)/C=C/c2ccc(Cl)c(Cl)c2)s1 | > 100 µM (inactive)
* CCCCCCCCCCCCCCCC(=O)OCCOCCOCCOCCOCCOC(=O)CCCCCCCCCCCCCCC | > 100 µM (inactive)
* Cc1cc(S(=O)(=O)Nc2n[nH]c(-c3ccc(Cl)cn3)n2)c(S)cc1Cl | 45.6 µM (inactive)

Next item in the queue.
Record O/N=C1\C/C(=N\O)c2c(Br)sc(Br)c21 , field GI50: 30.6 µM (inactive)

====

Entries and their GI50
test system: HCT-116; assay: NCI tumour cell line growth inhibition, 48 h
The source made the active and inactive calls. No stated cut-off is given here; in the data, active = GI50 up to about 1.1 µM and inactive = higher.

Record COc1cccc(CC(C)N)c1 (centres undefined) , field GI50: > 100 µM (inactive)

Record OC[C@H]1O[C@@H]2O[C@@](COCc3ccccc3)([C@H](OCc3ccccc3)[C@H]2O)[C@@H]1OCc1ccccc1 , field GI50: 16.5 µM (inactive)

Record Cc1ccc(N2C(=O)/C(=C/c3ccc(N(CCC#N)CCC#N)cc3C)N=C2c2cc([N+](=O)[O-])ccc2Cl)cc1 , field GI50: > 100 µM (inactive)

Record c1ccc2sc(C3(N4CCCCC4)CCCCCC3)cc2c1 , field GI50: 15.5 µM (inactive)

====

system: CAKI-1; assay: NCI tumour cell line growth inhibition, 48 h
Active and inactive are the calls of the source. Rule as the data show it: active = GI50 up to about 1.1 µM and inactive = higher.
Lab note: assign the record to one of active, inactive

• COC(=O)c1c(O)ccc2c1c1c(n2Cc2ccccc2)C(=O)c2ccccc2C1 = inactive
• Cc1ccccc1NC(=O)C(=O)CC(=O)c1sc(Nc2ccccc2[N+](=O)[O-])nc1C = inactive
• COc1cc2c(c(OC)c1OC)-c1ccc(SC)c(=O)cc1C(NC=O)CC2 (configuration not stated) = active
• N#CC12C(=O)N=C(N)C1(C#N)C(c1ccco1)NC1=C2CCCC1 (configuration not stated) = inactive
• Cc1nnc(N/N=C(/C(=O)C(C#N)c2ccccc2)C(C#N)c2ccccc2)n1N (configuration not stated) = inactive

Q. Please let me know the test result on file for CNC(=S)N/N=C(\C)c1cc(OC)ccc1O .
A. inactive

Q. Please let me know the test result on file for CC(=O)Nc1ccc(/C=C/C(=O)c2sc(-c3nc(C)c(C(=O)/C=C/c4ccc(NC(C)=O)cc4)s3)nc2C)cc1 .
A. inactive

====

system: HOP-92; experiment: NCI tumour cell line growth inhibition, 48 h
Activity calls are given as the source filed them. Cut-off read from the data, not from the text of the source: active = GI50 up to about 1.1 µM and inactive = higher.
Measured parameter: GI50

• CCOC(=O)c1cc2c([N+](=O)[O-])c(NC(C)=O)ccc2s1 = 44.8 µM (inactive)
• CC(=O)C1=C(C)N(c2ccc(C)cc2)C2(O)C=CC(=O)C3C(=O)N(c4ccccc4)C(=O)C132 (centres undefined) = 16.8 µM (inactive)
• COC(=O)c1cc(OC)c(OC)c(OC)c1-c1cc2c(cc1C=O)OCO2 = > 10 µM (inactive)

Next item in the queue.
Cc1ccc2nc(CN3CCCC(O)C3)cc(=O)n2c1 (centres undefined) tested on HOP-92 gave GI50: > 100 µM (inactive)

====

system: TK-10; test: NCI tumour cell line growth inhibition, 48 h
Activity calls are given as the source filed them. No stated cut-off is given here; in the data, active = GI50 up to about 1.1 µM and inactive = higher.
Measured parameter: GI50

# count of solved cases: 8
• CCN(CC)C(=S)Oc1cc2oc(=O)cc(C)c2cc1Cl = > 100 µM (inactive)
• O=[N+]([O-])c1cc([N+](=O)[O-])c(C(Cl)C(Cl)c2ccccc2)cc1C(Cl)C(Cl)c1ccccc1 (configuration not stated) = 2.34 µM (inactive)
• CC(C)(C)C1=CC(CCC(=O)Nc2ccccc2[N+](=O)[O-])=NC(S)N1 (configuration not stated) = > 100 µM (inactive)
• C=CCn1c(=O)ccn(COCCO)c1=O = > 100 µM (inactive)
• CC(=O)Nc1ccc(/C=C/C(=O)c2sc(-c3nc(C)c(C(=O)/C=C/c4ccc(NC(C)=O)cc4)s3)nc2C)cc1 = > 100 µM (inactive)
• CCOC(=O)c1c(-c2ccc(OC)cc2)c(C#N)c(=S)n(C2OC(CO)C(O)C(O)C2O)c1C (configuration not stated) = > 100 µM (inactive)
• C=C(C)C(=O)O[C@H]1C[C@@]23O[C@@H]2CCC(=C[C@H]2OC(=O)C(=C)[C@H]12)COC3O (some centres not stated) = > 100 µM (inactive)
• Cc1cc(N(CCC#N)CCC#N)ccc1C(/N=N/c1ccccc1)=N\NC(=O)c1cc(Cl)ccc1O = 14.9 µM (inactive)

COc1ccc(Cc2nc3ccccc3s2)cc1OC tested on TK-10 gave GI50: 36.2 µM (inactive)

O=C(CSCC(=O)N/N=C/c1cc(I)cc(I)c1O)N/N=C/c1cc(I)cc(I)c1O tested on TK-10 gave GI50: 7.4 µM (inactive)

CC(C(N)=O)N(C)C(=O)c1cc2ccccc2[n+](Cc2ccccc2)c1 (configuration not stated) tested on TK-10 gave GI50: > 100 µM (inactive)

CC(C)NCC(O)COC(=O)c1cccs1 (configuration not stated) tested on TK-10 gave GI50: > 100 µM (inactive)

CCCCc1ccc(Nc2nc(Cl)c3ccn(C4CC(Oc5ccc(C)cc5)C(COc5ccc(C)cc5)O4)c3n2)cc1 (configuration not stated) tested on TK-10 gave GI50: 30.3 µM (inactive)

CCCCCC(C)(C)CCC(=O)OC1OC(COC2OC(COC3OC(CO)C(O)C(O)C3O)C(O)C(O)C2O)C(O)C(O)C1O (configuration not stated) tested on TK-10 gave GI50: > 100 µM (inactive)

C=CC1=C(C)/C(=C/C2=NC(=C\c3[nH]c(CC4NC(=O)C(C)/C4=C\C)c(C)c3CCC(=O)O)/C(CC(=O)O)=C2C)NC1=O (configuration not stated) tested on TK-10 gave GI50: > 100 µM (inactive)

====

system: NCI-H460; test: NCI tumour cell line growth inhibition, 48 h
Activity calls are given as the source filed them. No stated cut-off is given here; in the data, active = GI50 up to about 1.1 µM and inactive = higher.
Measured parameter: GI50

* CC(C)=CC(=O)Cc1nc2ccc([N+](=O)[O-])cc2[nH]c1=O | > 100 µM (inactive)

C[C@@H]1C(=O)CC2C(C)(C)CCC[C@]2(C)[C@@]12CC[C@]1(C=COC1)O2 (stereo partly drawn) tested on NCI-H460 gave GI50: 32.8 µM (inactive)

CC(C)SC(C)(NC(=O)C1C(C)(C)CCC1(C)C)C(=O)O (stereo not drawn) tested on NCI-H460 gave GI50: > 100 µM (inactive)

N#Cc1cc([N+](=O)[O-])ccc1NC(=O)/C(=N/N)C(C(=O)c1ccc(Cl)c(Cl)c1)C1OC(=O)c2ccccc21 (stereo not drawn) tested on NCI-H460 gave GI50: 35.8 µM (inactive)

CC(=O)n1c2ccc(Br)cc2c2nc3ccccc3nc21 tested on NCI-H460 gave GI50: > 100 µM (inactive)

====

tested on: MOLT-4; assay: NCI tumour cell line growth inhibition, 48 h
The source made the active and inactive calls. Cut-off read from the data, not from the text of the source: active = GI50 up to about 1.1 µM and inactive = higher.
Lab note: assign the record to one of active, inactive

• CC(C)(C)c1ccc2c(c1)S(=O)(=O)Nc1ccc(Cl)cc1NS(=O)(=O)c1cc(C(C)(C)C)ccc1OCCOCCOCCO2 = inactive

Q. Please let me know the test result on file for COc1ccc(C(C)c2cc3c(cc2O)OCO3)cc1 (stereo not drawn) .
A. inactive

Q. Please let me know the test result on file for CCOC(=O)C1=C(C)N(C)C23OC4(C(=O)OC)CC2c2ccccc2C1N3C4=O (stereo not drawn) .
A. inactive

Q. Please let me know the test result on file for CCOC(=O)N1C2C=C(C)C(ON2C(=O)c2ccccc2)C2C(C)C(=O)N21 (stereo not drawn) .
A. inactive

Q. Please let me know the test result on file for NN/C(=N\S(=O)(=O)c1cccc2nsnc12)Nc1ccc(Cl)cc1 .
A. inactive

Q. Please let me know the test result on file for CCc1c(OC(C)=O)c2c(NC3OC(COC(C)=O)C(OC(C)=O)C(OC(C)=O)C3OC(C)=O)nc(SC)nc2oc1=O (stereo not drawn) .
A. inactive

====

system: KM-20L2; experiment: NCI tumour cell line growth inhibition, 48 h
The source made the active and inactive calls. Cut-off read from the data, not from the text of the source: active = GI50 up to about 1.1 µM and inactive = higher.
Lab note: assign the record to one of active, inactive

Please review the entries below; each comes with its answer.
- CNC(=O)C1CCc2nnc(-c3ccccc3)n21 (centres undefined): inactive
- CC1=C(C(=O)Nc2ccc([N+](=O)[O-])cc2)C(c2ccc3c(c2)OCO3)C(C(=O)Nc2ccc([N+](=O)[O-])cc2)=C(C)N1: inactive
- COC(=O)C1=C(C=O)C2C=CC1C2 (centres undefined): inactive
- Cc1ccccc1-n1c(=S)[nH]c2c(sc(=O)n2-c2ccccc2C)c1=O: inactive
- CC(C)(C)C#C[P+](c1ccccc1)(c1ccccc1)c1ccccc1: active

Q. Please let me know the test result on file for NC(=S)N/N=C1\CC(c2ccccc2)Nc2ccccc21 (centres undefined) .
A. inactive

Q. Please let me know the test result on file for CCOc1ccc2[nH]c3c(C)c4cc[n+](C)cc4c(C)c3c2c1 .
A. inactive

Q. Please let me know the test result on file for COc1cc(C[C@H]2c3cc(OC)c(OC)cc3CCN2C)c(Oc2cc3c(cc2OC)-c2c(OC)c(OC)cc4c2[C@H](C3)N(C)CC4)cc1OC .
A. inactive

Q. Please let me know the test result on file for COC(=O)C1CC/C(=N/c2ccc(C)cc2C)N1 (centres undefined) .
A. inactive

Q. Please let me know the test result on file for N#Cc1cn(C2OC(CO)C(O)C2O)c2ncnc(N)c12 (centres undefined) .
A. active

Q. Please let me know the test result on file for COc1cc(NS(C)(=O)=O)ccc1Nc1c2ccccc2nc2ccccc12 .
A. inactive

Q. Please let me know the test result on file for CC(=O)O[C@H]1C(=O)[C@@]2(C)C(C(OC(=O)c3ccccc3)[C@]3(O)CC(OC(=O)C(O)C(NC(=O)c4ccccc4)c4ccc(C)cc4)C(C)=C1C3(C)C)[C@]1(OC(C)=O)CO[C@@H]1C[C@@H]2O (some centres undefined) .
A. active

Q. Please let me know the test result on file for Cn1c(=O)n(C2(C)CSC2)c2ccccc21 .
A. inactive

Q. Please let me know the test result on file for CN(C)CCNC(=O)Cc1ccccc1Nc1c(Cl)cccc1Cl .
A. inactive
